Data origin, for the record: paper PMC6616564

# tested.on: KDM5B (His-tagged KDM5B 1-769) (Homo sapiens, UniProt Q9UGL1)
# Construct: residues 1-769, C-terminally truncated, N-terminal His6 tag, Sf9 baculovirus, HisTrap purified
# Sequence (Q9UGL1 1-769): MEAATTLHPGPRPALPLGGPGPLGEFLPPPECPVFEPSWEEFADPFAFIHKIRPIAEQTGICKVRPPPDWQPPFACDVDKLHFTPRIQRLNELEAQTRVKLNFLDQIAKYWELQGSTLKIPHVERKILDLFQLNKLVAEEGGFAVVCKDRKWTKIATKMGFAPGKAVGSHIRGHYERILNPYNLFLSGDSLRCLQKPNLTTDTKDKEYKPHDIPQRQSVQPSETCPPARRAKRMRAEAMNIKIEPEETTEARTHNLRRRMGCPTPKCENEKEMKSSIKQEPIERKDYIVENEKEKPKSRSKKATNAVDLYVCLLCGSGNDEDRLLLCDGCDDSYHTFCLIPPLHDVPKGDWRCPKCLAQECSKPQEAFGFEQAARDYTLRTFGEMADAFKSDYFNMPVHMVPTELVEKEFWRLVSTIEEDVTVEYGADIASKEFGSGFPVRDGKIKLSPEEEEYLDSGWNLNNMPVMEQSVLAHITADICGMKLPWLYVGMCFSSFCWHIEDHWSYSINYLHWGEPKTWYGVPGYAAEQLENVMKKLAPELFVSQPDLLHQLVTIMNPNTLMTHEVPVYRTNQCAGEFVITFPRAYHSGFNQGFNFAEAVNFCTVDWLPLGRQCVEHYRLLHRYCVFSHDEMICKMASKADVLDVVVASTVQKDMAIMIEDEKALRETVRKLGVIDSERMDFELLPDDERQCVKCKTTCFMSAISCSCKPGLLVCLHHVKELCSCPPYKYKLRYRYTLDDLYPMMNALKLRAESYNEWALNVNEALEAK
# assay.info: MALDI-TOF MS demethylation assay
outcome.measure: pIC50
Give bare numbers, as −log10 of the molar value.

Suppose we examine the compound Cc1ccc(NC2=CC(=O)c3sc(C)nc3C2=O)cc1 [Ryuvidine] ; what pIC50 value has been reported? 7.59

* * *

# tested.on: KDM5C (His-tagged KDM5C 1-839) (Homo sapiens, UniProt P41229)
# Construct: residues 1-839, C-terminally truncated, N-terminal His6 tag, Sf9 baculovirus, HisTrap purified
# Sequence (P41229 1-839): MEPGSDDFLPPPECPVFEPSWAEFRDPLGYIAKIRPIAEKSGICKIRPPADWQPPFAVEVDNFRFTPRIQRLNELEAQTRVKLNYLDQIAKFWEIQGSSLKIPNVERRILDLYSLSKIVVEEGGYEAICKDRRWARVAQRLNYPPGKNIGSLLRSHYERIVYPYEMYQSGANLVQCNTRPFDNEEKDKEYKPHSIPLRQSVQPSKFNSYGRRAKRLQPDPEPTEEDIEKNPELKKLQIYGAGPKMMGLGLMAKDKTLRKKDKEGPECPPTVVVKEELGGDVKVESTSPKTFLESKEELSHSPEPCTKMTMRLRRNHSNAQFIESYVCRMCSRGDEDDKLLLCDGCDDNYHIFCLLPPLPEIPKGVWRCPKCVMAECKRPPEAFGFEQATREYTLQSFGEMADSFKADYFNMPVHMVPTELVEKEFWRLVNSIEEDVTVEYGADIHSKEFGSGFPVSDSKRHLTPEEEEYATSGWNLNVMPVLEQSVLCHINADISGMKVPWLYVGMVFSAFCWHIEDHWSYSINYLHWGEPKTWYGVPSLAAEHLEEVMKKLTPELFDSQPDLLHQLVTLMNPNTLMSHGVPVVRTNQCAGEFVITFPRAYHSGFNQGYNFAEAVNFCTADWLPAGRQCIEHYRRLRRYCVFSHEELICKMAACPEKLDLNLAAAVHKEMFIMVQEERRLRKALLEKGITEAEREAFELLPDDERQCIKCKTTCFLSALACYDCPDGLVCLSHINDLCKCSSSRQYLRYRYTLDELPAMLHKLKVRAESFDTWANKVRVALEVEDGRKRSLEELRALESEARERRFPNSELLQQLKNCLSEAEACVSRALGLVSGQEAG
# assay.info: MALDI-TOF MS demethylation assay
outcome.measure: IC50 (µM)
One number for each entry, in µM.

Suppose we examine the compound Cc1ccc(NC2=CC(=O)c3sc(C)nc3C2=O)cc1 ; what IC50 value has been reported? 8.73
